B1: library; numbered along this chain (parent)
chain: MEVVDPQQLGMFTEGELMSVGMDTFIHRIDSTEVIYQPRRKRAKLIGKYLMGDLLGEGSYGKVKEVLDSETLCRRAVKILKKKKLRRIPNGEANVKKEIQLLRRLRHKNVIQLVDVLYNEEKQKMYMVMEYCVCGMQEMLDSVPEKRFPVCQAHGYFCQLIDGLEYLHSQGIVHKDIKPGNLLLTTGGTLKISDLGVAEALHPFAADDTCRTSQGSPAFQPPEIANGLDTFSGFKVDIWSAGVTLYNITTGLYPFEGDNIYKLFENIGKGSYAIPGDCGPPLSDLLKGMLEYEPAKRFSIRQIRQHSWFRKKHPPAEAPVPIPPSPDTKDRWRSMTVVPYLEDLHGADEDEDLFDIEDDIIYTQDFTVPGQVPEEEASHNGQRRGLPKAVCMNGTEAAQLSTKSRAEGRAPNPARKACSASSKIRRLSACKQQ

Variants of: B1
Protocol Details: STK11 functional score (HeLa growth suppression), rescaled enrichment; synonymous median = 1, nonsense median = 0 (normalised score)
Condition: with HeLa; variant type: missense
Binary classification by STK11 functional score, with 0.9 as an inclusive lower bound for Yes; all other cases are No.

Example results:
E357M = Yes
M139G = No
K48D = Yes
V95D = Yes
V173Y = Yes

Check if STK11 functional score >= 0.9 (inclusive). Item: R301P
Yes

Would you kindly repeat that for G370A ?
Yes

Would you kindly repeat that for S421K ?
Yes

Would you kindly repeat that for I79H ?
No

Would you kindly repeat that for E351M ?
Yes

Would you kindly repeat that for Y156A ?
No

Would you kindly repeat that for L17R ?
Yes

Would you kindly repeat that for K235A ?
Yes

Would you kindly repeat that for K82P ?
Yes

Would you kindly repeat that for I303C ?
No
